Where do these numbers come from? They come from patent US20150344540A1.

- test_target: human GLP-1 receptor (human, UniProt P43220)
- experiment_summary: cell-based or functional assay
Where no end group is shown, it is not given here.
Kind request: treat 0.02 nM as inclusive, so CRE luciferase EC50, 1% HSA at 0.02 nM or higher is t, anything lower is f.

- binder: "HXEGTFTSDVSSYLEGQAAKEFIAWLVKKXGEFL (Aib at 8, 36; C-terminal amide) [[Aib8,Lys35,Aib36]-GLP-1-(7-37)-peptidyl-Glu-Phe-Leu amide]"
  group: "f"
- binder: "HAEGTFTSDVSSYLEEEAVKEFIAWLVEKVKEFL-NH2 [[Glu22,Glu23,Val25,Glu34,Lys35,Val36,Lys37]-GLP-1-(7-37)-peptidyl-Glu-Phe-Leu amide]"
  group: "t"
- binder: "HAEGTFTSDVSSYLEGEAVKEFIAWLVEKVKEFL-NH2 [[Glu23,Val25,Glu34,Lys35,Val36,Lys37]-GLP-1-(7-37)-peptidyl-Glu-Phe-Leu amide]"
  group: "t"
- binder: "HAEGTFTSDVSSYLEGQAAKEFIAWLVEGVKEFLEK [[Glu34,Val36,Lys37]-GLP-1-(7-37)-peptidyl-Glu-Phe-Leu-Glu-Lys]"
  group: "t"
- binder: "HAEGTFTSDVSSYLEGQAAKEFIAWLVEHVKEFL-NH2 [[Glu34,His35,Val36,Lys37]-GLP-1-(7-37)-peptidyl-Glu-Phe-Leu amide]"
  group: "t"
- binder: "HAEGTFTSDVSSYLEGQAAKEFIAWLVEKVKEFLDK [[Glu34,Lys35,Val36,Lys37]-GLP-1-(7-37)-peptidyl-Glu-Phe-Leu-Asp-Lys]"
  group: "f"
